Molecular target: T1, EsCas13d, nuclease-dead (Eubacterium siraeum, UniProt B0MS50, R295A;H300A;R849A;H854A)
T1 sequence: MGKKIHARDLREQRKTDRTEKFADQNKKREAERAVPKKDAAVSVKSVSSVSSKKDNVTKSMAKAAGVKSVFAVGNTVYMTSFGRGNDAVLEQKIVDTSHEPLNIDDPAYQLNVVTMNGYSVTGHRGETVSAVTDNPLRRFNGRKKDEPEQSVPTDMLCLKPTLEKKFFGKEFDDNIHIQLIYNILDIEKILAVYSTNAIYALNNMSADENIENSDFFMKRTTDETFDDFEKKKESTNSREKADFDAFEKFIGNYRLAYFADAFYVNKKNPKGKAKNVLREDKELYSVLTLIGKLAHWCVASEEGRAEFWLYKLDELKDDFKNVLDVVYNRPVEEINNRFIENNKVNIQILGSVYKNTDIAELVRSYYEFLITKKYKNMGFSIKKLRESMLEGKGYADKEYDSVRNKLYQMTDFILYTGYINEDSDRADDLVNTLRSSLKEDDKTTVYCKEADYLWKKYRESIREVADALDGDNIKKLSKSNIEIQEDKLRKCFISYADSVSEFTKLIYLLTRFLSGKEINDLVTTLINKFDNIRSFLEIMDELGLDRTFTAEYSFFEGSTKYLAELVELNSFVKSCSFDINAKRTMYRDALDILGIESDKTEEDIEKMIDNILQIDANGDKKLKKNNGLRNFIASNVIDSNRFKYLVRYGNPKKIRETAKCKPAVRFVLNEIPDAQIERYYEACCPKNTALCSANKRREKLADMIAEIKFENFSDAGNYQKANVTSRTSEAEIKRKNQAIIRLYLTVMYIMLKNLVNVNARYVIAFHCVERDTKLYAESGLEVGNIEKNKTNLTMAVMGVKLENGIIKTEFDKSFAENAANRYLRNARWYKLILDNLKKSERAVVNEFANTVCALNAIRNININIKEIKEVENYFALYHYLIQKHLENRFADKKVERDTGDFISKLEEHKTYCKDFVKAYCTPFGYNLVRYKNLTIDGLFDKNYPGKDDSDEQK
Experiment: crRNA (strand 1, pre-loaded); Mg2+; 40 mM Tris-HCl pH 7.5, 150 mM NaCl, 6 mM MgCl2, 1 mM DTT, 0.1% Tween-20, 0.2 mg/ml BSA; 25 C; 10 min per concentration, then washed
Conditions: tags: His6-TwinStrep-SUMO cleaved; N-terminal SNAP kept (SNAP-Surface 488); label: 3' end held by stalled T7 RNA polymerase
Reported Kd values follow for various binders

# count of solved cases: 5
{"columns": ["binder", "Kd"],
 "data": [
  ["target 1 C6U,G15U (mixed) RNA 1: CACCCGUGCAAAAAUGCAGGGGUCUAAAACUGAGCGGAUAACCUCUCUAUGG RNA 2: GGGAAUGGAUCCACAUCUACGAAUUCGUACCAUAGAUAGGUUAUCUGCUCACCGAGAUCGGAAGAGCACACGU", "32.9 nM"],
  ["target 1 MT 5'PFS GUU 3'PFS AAU (mixed) RNA 1: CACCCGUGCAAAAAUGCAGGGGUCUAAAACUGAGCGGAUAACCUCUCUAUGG RNA 2: GGGAAUGGAUCCACAUCUACGAAUUCGUUCCAUAGAGAGGUUAUCCGCUCAAAUAGAUCGGAAGAGCACACGU", "22 nM"],
  ["target 3 insA 3' of 22,insC 3' of 19 (mixed) RNA 1: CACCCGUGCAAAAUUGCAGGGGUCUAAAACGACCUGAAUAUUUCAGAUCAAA RNA 2: GGGAAUGGAUCCACAUCUACGAAUUCGUUUAUUGCAUCUGAAAUAUUCAGGUCUGCAGAUCGGAAGAGCACACGU", "91 nM"],
  ["target 2 MT 5'PFS GGC 3'PFS CAG (mixed) RNA 1: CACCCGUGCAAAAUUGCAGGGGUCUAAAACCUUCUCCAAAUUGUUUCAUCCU RNA 2: GGGAAUGGAUCCACAUCUACGAAUUCGGCAGGAUGAAACAAUUUGGAGAAGCAGAGAUCGGAAGAGCACACGU", "12.1 nM"],
  ["target 1 MT 5'PFS GAA 3'PFS UCU (mixed) RNA 1: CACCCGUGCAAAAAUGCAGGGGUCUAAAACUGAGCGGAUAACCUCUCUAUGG RNA 2: GGGAAUGGAUCCACAUCUACGAAUUCGAACCAUAGAGAGGUUAUCCGCUCAUCUAGAUCGGAAGAGCACACGU", "25 nM"]
]}

What value of Kd has been recorded for this entry: target 1 MT 5'PFS GUC 3'PFS CUA (mixed) RNA 1: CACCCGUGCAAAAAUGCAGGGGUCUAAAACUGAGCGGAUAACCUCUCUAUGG RNA 2: GGGAAUGGAUCCACAUCUACGAAUUCGUCCCAUAGAGAGGUUAUCCGCUCACUAAGAUCGGAAGAGCACACGU
17.5 nM

Try target 3 C1U,G3A (mixed) RNA 1: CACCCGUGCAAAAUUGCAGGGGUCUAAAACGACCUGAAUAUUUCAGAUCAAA RNA 2: GGGAAUGGAUCCACAUCUACGAAUUCGUUUUUGAUCUGAAAUAUUCAGAUUUGCAGAUCGGAAGAGCACACGU next.
45 nM

Please answer likewise for target 2 MT 5'PFS GUG 3'PFS CUU (mixed) RNA 1: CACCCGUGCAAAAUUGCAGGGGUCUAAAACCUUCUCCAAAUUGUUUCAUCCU RNA 2: GGGAAUGGAUCCACAUCUACGAAUUCGUGAGGAUGAAACAAUUUGGAGAAGCUUAGAUCGGAAGAGCACACGU
12.8 nM
